target: Chimera 1 (Homo sapiens, UniProt P36544, M226I/T225V); test: Membrane potential imaging (FLIPR-FMP) in HEK-293 cells; assay type: cell-based; design: expressed in transfected cells; conditions: read-out: FMP imaging: positive allosteric modulation EC50 (95% C.I.); submaximum NS6784 (120-200 nM)
Sequence (P36544 with tags, fused parts or gaps T225V/M226I): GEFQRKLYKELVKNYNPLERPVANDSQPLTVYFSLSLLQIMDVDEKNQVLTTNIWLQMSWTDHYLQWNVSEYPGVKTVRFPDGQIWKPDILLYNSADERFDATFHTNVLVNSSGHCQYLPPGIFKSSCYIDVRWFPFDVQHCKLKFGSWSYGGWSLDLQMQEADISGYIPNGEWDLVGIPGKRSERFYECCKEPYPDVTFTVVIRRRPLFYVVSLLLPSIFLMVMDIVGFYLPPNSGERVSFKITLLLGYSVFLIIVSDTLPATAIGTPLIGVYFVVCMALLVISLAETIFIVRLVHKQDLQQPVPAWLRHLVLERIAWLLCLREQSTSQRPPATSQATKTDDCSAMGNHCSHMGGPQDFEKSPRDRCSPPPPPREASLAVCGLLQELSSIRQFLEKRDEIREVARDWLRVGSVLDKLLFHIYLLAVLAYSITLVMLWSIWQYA
measuredMetric: pEC50
Reminder that pEC50 is minus the log10 of a molar concentration.

Q: Item Oc1ccc2[nH]ccc2c1 [5-HI, 5-hydroxyindole] has what recorded pEC50?
Result: 3.63

* * *

biological target: Chimera 2 (Homo sapiens, UniProt P36544, M226I/T225V); experiment: [3H]A-585539 radioligand binding, HEK-293 membranes/homogenates; parameters: expressed in transfected cells; details: 10 μM genistein, 4 μg/well; read-out: Kd, saturation binding
Sequence (P36544 with tags, fused parts or gaps T225V/M226I): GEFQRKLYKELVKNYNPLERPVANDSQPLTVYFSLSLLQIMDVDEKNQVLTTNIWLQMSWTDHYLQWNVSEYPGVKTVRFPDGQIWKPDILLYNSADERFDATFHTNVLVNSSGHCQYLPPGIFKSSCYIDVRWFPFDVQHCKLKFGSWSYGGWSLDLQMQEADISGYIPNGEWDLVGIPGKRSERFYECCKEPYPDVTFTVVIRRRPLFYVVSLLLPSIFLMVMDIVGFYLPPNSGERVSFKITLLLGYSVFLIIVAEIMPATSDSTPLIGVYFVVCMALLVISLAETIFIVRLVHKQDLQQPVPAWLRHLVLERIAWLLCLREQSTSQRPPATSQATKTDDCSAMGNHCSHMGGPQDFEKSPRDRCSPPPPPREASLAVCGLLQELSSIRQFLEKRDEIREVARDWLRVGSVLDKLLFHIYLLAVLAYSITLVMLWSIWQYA
measuredMetric: pKd
Scale for pKd: -log10 of concentration given in mol/L; no unit attached.

Q: What does the record list as pKd for C[N+]1(C)C[C@@H]2C[C@H]1CN2c1ccc(-c2ccccc2)nn1.[I-] [[^3H]A585539] ?
Result: 10.00
